Procedure details: Displacement of [3H]SCH23390 from dopamine D1-like receptor in pig striatal tissue homogenates after 30 mins by scintillation counting
Format: tissue-based, Sus scrofa, Striatum
Structures can show the parent of a compound that is named as a salt.
Field: pKi. Provide a value for each of the molecules that follow.
The scale used: pKi is minus the common logarithm of the concentration in molar units.

Q: Field request: pKi | item: Oc1cc2c(cc1O)[C@H]1c3ccccc3SC[C@@H]1NCC2 (racemic)
Result: 7.04

Q: Entry Oc1cc2c(cc1O)[C@@H]1c3ccccc3CC[C@@H]1NCC2 (racemic) has what pKi?
Result: 4.66

Q: Fill blank: measured pKi of the molecule Oc1cc2c(cc1O)[C@@H](c1ccccc1)CNCC2 is ____.
Result: 6.82

Q: Need pKi, item CN1CCc2cc(Cl)c(O)cc2[C@@H](c2ccccc2)C1
Result: 9.19

Q: Which pKi is reported for this molecule? Oc1cc2c(cc1O)[C@H]1c3ccccc3OC[C@@H]1NCC2 (racemic)
Result: 6.73

Q: Given CN1CCc2cc(Cl)c(O)cc2[C@H]2c3ccccc3CC[C@@H]21 [ECOPIPAM HYDROCHLORIDE] , state its recorded pKi.
Result: 8.89

Q: Quick one: pKi for Oc1cc2c(cc1O)[C@H]1c3ccccc3CC[C@@H]1NCC2 (racemic) ?
Result: 6.59
